tested on: HT29 colon; assay: NCI-60 one-dose screen, 48 h (100 = growth as untreated, 0 = no growth, -100 = all killed); settings: 10 µM unless noted
Compounds without any hit were thinned out: in the full panel of roughly 83,000, 20% have a hit.
This section presents compounds with their documented growth values.

smiles_input	growth (%)
COC(=O)c1cc(-c2cc(OC)c(OC)c(OC)c2)[nH]c1N/N=C/c1c(Cl)cccc1Cl	32.4
Cc1cccc(C)c1NC(=O)Nc1ccccc1	27.3
Nc1nc(=O)n([C@H]2CC=C(CO)O2)cc1F	91.9
NS(=O)(=O)Oc1cccc(-c2nc3sccn3c2-c2ccccc2)c1	27
CN1CCN(c2ccc(Nc3ncc4[nH]c(=O)n(Cc5ccccc5N)c4n3)cc2)CC1	80.2
COc1nc2ccccc2cc1/C=[N+](\[O-])c1ccccc1	70
CCOc1ccc(-c2cc(C3(S(=O)(=O)c4ccc(C)cc4)CC=CC3)on2)cc1	77.7
